- method summary: Stability in synthetic halogen demand water (SDW)
- Type: physicochemical
- protocol conditions: synthetic halogen demand water; SDW, 4° C., pH 9.5, 25.0 hrs; read-out: Percent Halogen Remaining
readout type: remaining at 25 h

CC1(C)C(=O)N(Cl)C(C)(C)N1Cl [Compound 1] ... 71.4%

====

- method summary: Laboratory stability in halogen demand-free water (DFW), iodometric titration
- Format: physicochemical
- protocol conditions: demand-free water, pH 9.5
readout type: remaining at 95.76 h (%)

CC1(C)C(=O)N(Cl)C(C)(C)N1Cl ... 98.9

====

- method summary: Prevention of the growth of algae in water by Compound 1
- Format: cell-based
- protocol conditions: algal aquarium, pH 6.8; start 6.14 mg per liter, day 8; read-out: Percent Total Potential Positive Chlorine Remaining
readout type: remaining at 192 h

CC1(C)C(=O)N(Cl)C(C)(C)N1Cl ... 48.9%

====

- method summary: Laboratory stability in halogen demand-free water (DFW), iodometric titration
- Assay type: physicochemical
- protocol conditions: demand-free water, pH 7
// remaining at 504 h lookup, one value per entry
readout type: remaining at 504 h (%)

CC1(C)C(=O)N(Cl)C(C)(C)N1Cl ... 93.5
CC1(C)C(=O)N(Cl)C(C)(C)N1Br ... 75

====

- method summary: Prevention of the growth of algae in water by Compound 1
- Assay type: cell-based
- protocol conditions: algal aquarium, pH 6.8; start 6.14 mg per liter, day 13; read-out: Percent Total Potential Positive Chlorine Remaining
readout type: remaining at 312 h

CC1(C)C(=O)N(Cl)C(C)(C)N1Cl [Compound 1] ... 44.8%

====

- method summary: Laboratory stability in halogen demand-free water (DFW), iodometric titration
- Type: physicochemical
- protocol conditions: demand-free water, pH 4.5
readout type: remaining at 1008 h (%)

CC1(C)C(=O)N(Cl)C(C)(C)N1Cl ... 23.5

====

- method summary: Stability in synthetic halogen demand water (SDW)
- Format: physicochemical
- protocol conditions: synthetic halogen demand water; SDW, 4° C., pH 9.5, 122.0 hrs; read-out: Percent Halogen Remaining
readout type: remaining at 122 h

CC1(C)NC(=O)C(C)(C)N1Cl [Compound 3] ... 94.1%

====

- method summary: physchem
- Assay type: physicochemical
- protocol conditions: water, solubility in water
readout type: solubility (µg/mL)

CC1(C)C(=O)N(Cl)C(C)(C)N1Cl ... 1380
CC1(C)C(=O)N(Cl)C(C)(C)N1Br ... 1020
CC1(C)C(=O)N(Br)C(C)(C)N1Br ... 720

====

- method summary: Stability in synthetic halogen demand water (SDW)
- Type: physicochemical
- protocol conditions: synthetic halogen demand water; SDW, 4° C., pH 9.5, 94.0 hrs; read-out: Percent Halogen Remaining
readout type: remaining at 94 h (%)

CC1(C)C(=O)N(Cl)C(C)(C)N1Br ... 31.8

====

- method summary: Laboratory stability in halogen demand-free water (DFW), iodometric titration
- Type: physicochemical
- protocol conditions: demand-free water, pH 9.5
readout type: remaining at 840 h (%)

CC1(C)C(=O)N(Cl)C(C)(C)N1Cl ... 63.7
CC1(C)C(=O)N(Cl)C(C)(C)N1Br ... 46.8

====

- method summary: Prevention of the growth of algae in water by Compound 1
- Type: cell-based
- protocol conditions: algal aquarium, pH 6.8; start 6.14 mg per liter, day 6; read-out: Percent Total Potential Positive Chlorine Remaining
readout type: remaining at 144 h (%)

CC1(C)C(=O)N(Cl)C(C)(C)N1Cl ... 51

Each recorded value in this set is attributed to patent US5126057A.
